test-method-notes: Qualitative solubility in representative organic solvents
Assay type: physicochemical
applied-conditions: toluene, qualitative
measurement-kind: solubility in toluene

CC(=O)O[Si-2]123(O[Si](C)(C)CCCN(C)C)n4c5c6ccccc6c4N=C4c6ccccc6C(=[N+]41)N=c1c4ccccc4c(n12)=NC1=[N+]3C(=N5)c2ccccc21 [Compound 2, CH3C(O)OSiPcOSi(CH3)2(CH2)3N(CH3)2] :: moderately soluble
CN(C)CCC[Si](C)(C)O[Si]1(O)n2c3c4ccccc4c2N=C2N=C(N=c4c5ccccc5c(n41)=NC1=NC(=N3)c3ccccc31)c1ccccc12.O=C(O)CCC(=O)OCCOCCOCCOCCOCCOCCOCCOCCOCCO (stereo not shown) [Compound 20] :: moderately soluble
CN(C)CCC[Si](C)(C)O[Si]1(O)n2c3c4ccccc4c2N=C2N=C(N=c4c5ccccc5c(n41)=NC1=NC(=N3)c3ccccc31)c1ccccc12.CP(C)(=O)O (stereo not shown) [Compound 13] :: moderately soluble
CN(C)CCC[Si](C)(C)O[Si-2]123(F)n4c5c6ccccc6c4N=C4c6ccccc6C(=[N+]41)N=c1c4ccccc4c(n12)=NC1=[N+]3C(=N5)c2ccccc21 [Compound 1, FSiPcOSi(CH3)2(CH2)3N(CH3)2] :: moderately soluble

For reference, reported solubility in toluene for CN(C)CCC[Si](C)(C)O[Si]1(O)n2c3c4ccccc4c2N=C2N=C(N=c4c5ccccc5c(n41)=NC1=NC(=N3)c3ccccc31)c1ccccc12.COC(=O)c1ccccc1C(=O)O (stereo not shown) [Compound 10] stands at moderately soluble

For reference, reported solubility in toluene for CO[Si]1(O[Si](C)(C)CCCN(C)C)n2c3c4ccccc4c2N=C2N=C(N=c4c5ccccc5c(n41)=NC1=NC(=N3)c3ccccc31)c1ccccc12 (stereo not shown) [Compound 4, CH3OSiPcOSi(CH3)2(CH2)3N(CH3)2] stands at moderately soluble

For reference, reported solubility in toluene for CCC(=O)O[Si-2]123(O[Si](C)(C)CCCN(C)C)n4c5c6ccccc6c4N=C4c6ccccc6C(=[N+]41)N=c1c4ccccc4c(n12)=NC1=[N+]3C(=N5)c2ccccc21 [Compound 3, CH3CH2C(O)OSiPcOSi(CH3)2(CH2)3N(CH3)2] stands at moderately soluble
